- Tested on: K4 kissing-loop RNA reporter
- Assay Text: apparent KD of K4 kissing-loop reporter; higher = weaker reporter binding
- Experimental Setup: Eterna round: R107; input ligand: theophylline 20 uM

| Query Sequence | Target | apparent KD of K4 kissing-loop reporter / nM |
| --- | --- | --- |
| AGAGUUAUGAGAGGAUAUGCGGCUAGUACUCAAAGAGUACUAGCAGCGGAGUGAUGUUCUGCGAAAGCAGAAGGUUCAUAACUCA [#08 K4 FMN B Same State] | K4 kissing-loop RNA reporter | 1110 |
| GCUAUGGUAGGAAGGAGCGCUGCCUUGUUUUUACGAGUGAUGUUCGGAAGCAGGGUGUUAAAGCAGGUAGGUCGCCUACUAUAGC [Arginine B K4 23] | K4 kissing-loop RNA reporter | 172 |
| GUGGUUUACGUAGGAUAUCGGUGAUGAGUAAAUGGAGUGAUGUUCCGAGAUUGAAUAUGAGAUGAGCGAGAAGGGCGGUUUAUGC [FMN B Same State; Euporia Solution 3] | K4 kissing-loop RNA reporter | 89.7 |
| AAUUUAUAUUUAUUCUUUAAAUGUUCAGAAGGAGCGUGAAUUAUCACAGGUAGGUCGCUGAGCUAGUGAUGUUGGCUAUAUACUA [whbob_Ex_Arginine_A_2t124] | K4 kissing-loop RNA reporter | 217 |
| UGUUAUGUAUCAGGAUAUUAGUGUUGUUUGUUUAUGUUAGUGAUGUUGAUAUUUGUUUUAUGUAUUUAAGAAGGGAUUGAGAUGU [kkplmullin] | K4 kissing-loop RNA reporter | 359 |
| UGCAUGCUUAGAGUGAUGUUCUAAGAUGAUACCAGUGCUUUUUUGCACCCUUGGCAGCGUCUGAUUGCAUGCACGUCGAAAGACG | K4 kissing-loop RNA reporter | 266 |
| GAACGGCGGGCGGCCGCCACUGGUAUACGAGUGAUGUUCGGAUAUACAUAAAAUAAGGUAAUUAACAGGACCGGGUCAGAGCCGG [Tryptophan B Same State; Euphoria Solution] | K4 kissing-loop RNA reporter | 142 |
| UUGGCAGUGAUGUUGCCAGACAUCACCGAAGGAGCGGGCGAAAGCCCAGGUAGGUCGCGGUAGCGGAGUGAUUCUCCGCGAGGGC [Same State Arginine A GF 23] | K4 kissing-loop RNA reporter | 759 |
| UUAGAGAUCUCAGGAUAUCAGUGAUGUUGGUUGCCAGAUCUGAGAUAGAAUUCUAUCUCAGAUCAAUGAGAAGGGAGAUCUCAUU [AK4 Exc FMN B] | K4 kissing-loop RNA reporter | 317 |
| UGAUAGGACAGAAGGAGCGGUAGUGAUGUUACCAAAAGGGUAAGGUGUCAAAAGACACCCUACCAGGUAGGUCGCUGUCCUAUCU | K4 kissing-loop RNA reporter | 84.3 |
| AUGCGACGUGCGGCCGCCACUCGGAUGCGAGUGAUGUUCGCGGGACGGACGCAAGUCCGUCAUUCGAGGACCGGGCAUCGGUGUA [#2 Same State - Tryptophan B Attempt #2 (HarryS)] | K4 kissing-loop RNA reporter | 512 |
| AAACUUGCAGUGAUGUUGCAAGUAGGUGAUACCAGCAUCGAAAGAUGCCCUUGGCAGCACCAUCACUGUAAGUAGGUGCUGUCAA [(H1)-(H2)-(T1)-(T2)-(H)'-(T)'_Design5] | K4 kissing-loop RNA reporter | 111 |

###

- Tested on: K4 kissing-loop RNA reporter
- Assay Text: apparent KD of K4 kissing-loop reporter; higher = weaker reporter binding
- Experimental Setup: Eterna round: R107; input ligand: tryptophan 2.4 mM

| Query Sequence | Target | Result Units | apparent KD of K4 kissing-loop reporter |
| --- | --- | --- | --- |
| AUGGUAUUGCGAGGAUAUCCUUCAAACGUGACACUAACGGCAGUGAUGUUGCCGGCGUCGAUCAGAGGAGAAGGCGCGGUGUUAU [Exclusion FMN B GF 23] | K4 kissing-loop RNA reporter | µM | 0.119 |
| GGAGGAGAAUAUGAUACCAGCAGAGAGAGAGAGGAAGUAUAGUGAUGUUAUAUGUGAGAAUGCCCUUGGCAGCAUAACAAGAAGG [whbob_SS_Theo_B_sa88] | K4 kissing-loop RNA reporter | µM | 0.122 |
| AUGCGACGUGCGGCCGCCACUCGGAUGCGAGUGAUGUUCGCGGGACGGACGCAAGUCCGUCAUUCGAGGACCGGGCAUCGGUGUA [#2 Same State - Tryptophan B Attempt #2 (HarryS)] | K4 kissing-loop RNA reporter | µM | 0.139 |
| CUAUUUCGCGUGGAUACCAGCGGUCGUAAAAUGUCAGUGAUGUUGAAGAGGAAAAGAGCUCGCCCUUGGCAGCCAUUCCGCACUA [theeternabot_sameState_KL_Theo_B_34] | K4 kissing-loop RNA reporter | µM | 0.399 |
| AGAGUACGAAAGUACUCCUCUACACACUGCCGAGGACCGGUACGGCCGCCACUCGAGUUGAGUGAUGUUCGACAGUGUGUAGAGA [Omei KL Tryp A SS C v2] | K4 kissing-loop RNA reporter | µM | 0.128 |

###

- System: K4 kissing-loop RNA reporter;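 further: bound reporter read as fluorescence of individual clusters on recovered sequencing chips by microscopy, with normalized cluster intensities fitted with a binding model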
- Assay Text: apparent KD of K4 kissing-loop reporter; higher = weaker reporter binding
- Experimental Setup: Eterna round: R107; input ligand: theophylline 20 uM
Lab note: anything with apparent KD of K4 kissing-loop reporter at or over 0.1 µM counts as Criterion met; the rest go in Criterion not met.

| Query Sequence | Group |
| --- | --- |
| GUGCAGUGAUGUUGCACGAGGAAAGACGAUACCAGCCGUAAAUAAGGCCCUUGGCAGCGUAAGCUAGCAUAAAGUAUGCUAGUCC [Onarve] | Criterion not met |
| GGAGCAGUGAUGUUGCUUGUAAUGCAUUCAGAGGAUAUUCGUUUGGGAAGAAGGCUGAAUCGUUCUUCGAGUGAUGUUCGAGGAU [Same State FMN A GF 16] | Criterion met |
| GAUGGGUAUCAAGGAUAUGCCACUAUUGACUCCUAGAUGGUCAACCAUAUAAUGCGAGUGAUGUUCGCAGAAGGUGAUUCUUAGC [theeternabot_exclusion_KL_FMN_B_24] | Criterion not met |
| AAAUAAGCUCAUGAUACCAGCCAGUGAUGUUGGUUGGUCCACCGUGUCCGAACAUUAAGCGGCCCUUGGCAGCAUGAUGCGCGUA [Xearxea] | Criterion met |
| GCGCGUCAUGUCAGCGGUGACACUGUCGAUACCAGCGCCGAAAGGCGCCCUUGGCAGCGACGUGCUGGAGUGAUGUUCCAGCGUG [#2 Exclusion - Theophylline A Attempt #25 (HarryS)] | Criterion met |
| UGGACAUGACUCGAUAAGAGUCAAUGAGAUACCAGUGACGAAAGUCACCCUUGGCAGCUCAACUGCCAGUGAUGUUGGUAGUCCU [#SwitchBubble #StaticStem] | Criterion met |
| UCAGUGAUGUUGAACAAAUAAUGGUUCCUAAAGGAUAUCCACAGAUGGAGAAGGUUAGUAGCGGCUCGCACAUCGUAGGACAAAU [theeternabot_exclusion_KL_FMN_A_1] | Criterion met |
| UAGGCCGCAUACAUUAGAUAAGGUACCGAUACCAGCCUCGCACCAGGCCCUUGGCAGCGGCAUCAAAUGGGUAGUGAUGUUACCU [theeternabot_exclusion_KL_Theo_A_20] | Criterion met |
| UUAUUAAUCACAGAUACCAGUCCAGAAUGAAUACUAUAGUGAUGUUAUAAUAAAGGGAAGGACCCUUGGCAGCUGUAAUAUAUUU [AstrosSsTheB#2] | Criterion met |
| GUCCCAGUGAUGUUGGUAGGCGAGCGGGAUACCAGCGAAGACUCACGCCCUUGGCAGCCCACAUAUCCCGCGUAGGGAUUAGCUC [Same State - Theophylline A (Freestyle 21)] | Criterion met |
| GCCGUAGAUUGAAGGAGCGUGGACCUAUCGCUUGAACAGUGAUGUUGUUUAUCUAGGGAGCCGCAGGUAGGUCGCAAUCUACGGC | Criterion met |
| AUUCGUUUAUGUGAUACCAGACUUUGCAGUGAUGUUGCUUUAAUUAAAGAUGUUUAGUUUGUCCCUUGGCAGCACUAUUUAUUUA [JR_SSTheophyB_Sub001] | Criterion met |
| GGAUAGGAUAGAGGAUAUGGGCUAGGCAAGAAUAACUUGUCUAGCAAAUCCAUGAGGAGUGAUGUUCCAGAAGGCUAUCCUAUCG [FmnBX 1 U9+A77] | Criterion met |
| GGUUCCUCAGUGAUGUUGAGGUGACCUCGGCAGGAUAUAGGCAUUACUAGAAGGGCCAAAAGAAUCCUGUGCAGCAACACAGGGA [Usrasoza] | Criterion met |
| UGAUACCAGACGGCCGCCACUAGGGCUAGCAAAGCUAGCAAGUGAUGUUUGAGGAGUGAUGUUCCUAGGACCGGGUCUGGUAUCU [TrypBX 1 #Palindromic #SwitchBubble #StaticStem] | Criterion not met |
| AGAUUCGACACGGCCGCCACUCGUGGAUCUUGGUUGAGAGAUGAAAUAGAGUGAUGUUCUAAUACGAGGACCGGGUGUUGAGUCU [KL-SSTryp-B23] | Criterion met |
| GUAUUUCCCUCGGAUACCAGUCAUCAUGAGUAUAGUGAUGUUGUACGUCCGGAUGAUUUUGACCCUUGGCAGCCGUCUCCUUGAA [theeternabot_sameState_KL_Theo_B_49] | Criterion met |
| UUAGUCUAGAGAAGGAGCGCAGUGAUGUUGCGGUAUGUGAAAAUAUGUAUAUAAUAAUAAAUGCAGGUAGGUCGCUCUAGACAUU [AK2 Exc Arginine B] | Criterion not met |
| UCCUAGGCUCGAAAGAGCCUAGGAUGGACUCAGGAUAUCCGGAAACGGAGAAGGGAGUCACUAGUGAUGUUAGGGACUCCCUAAC | Criterion met |
| UGAUAGGACAGAAGGAGCGGAAGUGAUGUUUCCAAAUGGAAUAAGGUGUCAAAGACACCCUUCCAGGUAGGUCGCUGUCCUAUCU [ArgBX 15 #Palindromic #SwitchBubble #StaticStem] | Criterion met |
| AAAUAAAUCACGGCCGCCACUGUAAGUUGAAGUGAUGUUUCAAGAUAUAGUAUGUUUUAUAAUAUCAGGACCGGGUGAUUUUUAA [JR_SSTryptoB_Sub021] | Criterion met |
| AAACGUUGUUGCGAUACCAGCUGAUCGGAAACGAUCAUGCUGGAGUGAUGUUCCAGGAAAAGCCCUUGGCAGCGCAACGACGAAA [MAT - Same State Theophlline B - Mod of Eli - D30] | Criterion met |
